Biological target: Indoleamine 2,3-dioxygenase 1 (Homo sapiens, UniProt P14902)
Sequence (P14902 whole entry): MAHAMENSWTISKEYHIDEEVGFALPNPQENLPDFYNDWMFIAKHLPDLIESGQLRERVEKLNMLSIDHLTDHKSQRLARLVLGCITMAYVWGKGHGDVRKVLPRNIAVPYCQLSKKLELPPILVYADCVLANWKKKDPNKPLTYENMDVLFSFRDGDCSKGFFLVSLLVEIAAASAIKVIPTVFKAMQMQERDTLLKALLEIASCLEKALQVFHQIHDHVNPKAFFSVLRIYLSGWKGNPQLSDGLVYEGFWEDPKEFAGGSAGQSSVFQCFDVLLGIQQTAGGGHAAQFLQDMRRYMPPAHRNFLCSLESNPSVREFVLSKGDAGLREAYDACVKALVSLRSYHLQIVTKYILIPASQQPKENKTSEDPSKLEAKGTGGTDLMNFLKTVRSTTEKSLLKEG
Assay: Inhibition of IDO1 in IFNgamma-stimulated human HeLa cells assessed as reduction in kynurenine formation using L-tryptophan as substrate by absorbance based analysis
Below, each of the compounds is paired with its reported IC50 value.

Take a look at these entries with their results.
{"columns": ["query_smiles", "IC50"],
 "data": [
  ["O=C(NCc1ccccc1)c1cccc(N/C(=N/O)c2ccc3occc3c2)c1", "> 30 µM"],
  ["O/N=C(/Nc1cccc(F)c1)c1ccc2occc2c1", "20 µM"],
  ["O/N=C(/Nc1ccc(F)c(Br)c1)c1ccc2oc3ccccc3c2c1", "16.2 µM"],
  ["OCc1cc2cc(/C(=N\\O)Nc3cccc(Cl)c3)ccc2o1", "5.9 µM"],
  ["CC1CCN(C(=O)c2cccc(N/C(=N/O)c3ccc4occc4c3)c2)CC1", "> 30 µM"]
]}

Here is another compound to look at.
# input Which IC50 value belongs to "O/N=C(/NCC1CC1)c1ccc2occc2c1" ?
# output > 30 µM
